System: skull (cranial bone) of an apoaequorin transgenic mouse
Measurement description: Intracellular calcium (aequorin luminescence) in skull (cranial bone) pieces of apoaequorin transgenic mouse
Type: cell-based
Condition label: final concentration 10 μmol/l
[ ]: non-standard residue; d: D form. LYB = not defined here
Measured attribute: luminescence (intracellular calcium increase)

- Substance: "H-Leu-Ser-Pro-His-Thr-Lys-Leu-Ser-Tyr-Gly-Glu-Gly-Val-Phe-Leu-Arg-Leu-Ser-Lys-Ser-Glu-Gly-Leu-Met-Glu-Ile-Lys-Leu-Met-Glu-Asp-Leu-Met-Val-Phe-Pro-Lys-Thr-Gly-NH2 (H-LSPHTKLSYGEGVFLRLSKSEGLMEIKLMEDLMVFPKTG-NH2) [Peptide 1S]"
  Result value: "not detected"
- Substance: "H-Leu-Ser-Pro-His-Thr-Lys-Leu-Ser-Tyr-Arg-Glu-Glu-Val-Phe-Leu-Arg-Leu-Ser-Lys-Ser-Glu-Gly-Leu-Met-Glu-Ile-LYB-Leu-Met-Glu-Asp-Leu-Met-val-Phe-Ser-Arg-Thr-Gly-NH2 (H-LSPHTKLSYREEVFLRLSKSEGLMEI[LYB]LMEDLM[dV]FSRTG-NH2; reading uncertain) [Peptide 2S]"
  Result value: "not detected"
